Target: CDK7/CyclinH/MAT1 (Homo sapiens)
Construct: purchased Millipore, Billerica, Mass., USA
Sequence (P50613 whole entry): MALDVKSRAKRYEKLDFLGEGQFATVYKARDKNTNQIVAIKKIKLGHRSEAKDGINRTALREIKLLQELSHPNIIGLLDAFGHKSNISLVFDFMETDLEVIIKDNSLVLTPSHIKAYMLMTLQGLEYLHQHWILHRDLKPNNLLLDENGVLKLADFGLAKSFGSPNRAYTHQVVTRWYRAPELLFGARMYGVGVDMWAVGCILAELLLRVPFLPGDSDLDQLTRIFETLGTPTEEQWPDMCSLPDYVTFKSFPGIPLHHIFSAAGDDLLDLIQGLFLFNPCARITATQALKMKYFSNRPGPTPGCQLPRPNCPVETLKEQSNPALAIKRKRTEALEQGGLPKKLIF
Sequence (P51946 whole entry partner): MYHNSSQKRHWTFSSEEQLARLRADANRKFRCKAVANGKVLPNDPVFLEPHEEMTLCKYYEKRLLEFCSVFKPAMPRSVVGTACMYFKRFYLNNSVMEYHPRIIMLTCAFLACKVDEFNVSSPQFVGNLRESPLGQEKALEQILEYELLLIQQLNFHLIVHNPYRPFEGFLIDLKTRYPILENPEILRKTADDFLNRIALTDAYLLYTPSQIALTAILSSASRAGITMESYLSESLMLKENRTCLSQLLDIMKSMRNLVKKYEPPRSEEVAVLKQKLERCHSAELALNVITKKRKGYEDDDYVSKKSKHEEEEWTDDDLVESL
Sequence (P51948 whole entry partner): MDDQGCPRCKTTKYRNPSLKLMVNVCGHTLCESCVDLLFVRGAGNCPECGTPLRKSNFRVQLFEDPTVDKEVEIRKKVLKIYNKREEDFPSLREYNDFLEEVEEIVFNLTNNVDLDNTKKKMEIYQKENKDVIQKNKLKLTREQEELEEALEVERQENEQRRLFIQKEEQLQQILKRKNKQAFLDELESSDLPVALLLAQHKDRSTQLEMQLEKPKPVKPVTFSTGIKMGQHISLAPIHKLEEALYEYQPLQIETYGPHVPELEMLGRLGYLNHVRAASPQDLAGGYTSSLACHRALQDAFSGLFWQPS
Experiment: ADP-Glo Kinase Assay, CDK7/CyclinH/MAT1
Type: biochemical
Settings: read-out: % inhibition at 1 μM CDK7/CyclinH/MAT1
Where a name gives a salt, the structure may show the parent alone.
experimental_readout: inhibition at 1 µM (%)
Please respond with the number in % and leave the unit unwritten.

Below: 3 molecules and their reported inhibition at 1 µM.
>  <molecule>
CN1CCN(c2nc3c(Br)c(Br)c(Br)c4c3n2CCC4)CC1 [Example 3M]

>  <inhibition at 1 µM / %>
0

$$$$
>  <molecule>
Brc1c(Br)c2c3c(nc(C4CCNCC4)n3CCC2)c1Br [Example 7E]

>  <inhibition at 1 µM / %>
15

$$$$
>  <molecule>
NCCNc1nc2c(Br)c(Br)c(Br)c3c2n1CCC3 [Example 1A, hydrochloride]

>  <inhibition at 1 µM / %>
0

$$$$

// switching to the query molecule
Need inhibition at 1 µM of Cc1c(Br)c(Br)c2c3c1nc(N1CCNCC1)n3CCC2 [Example 1K] , thanks.
0
